Data origin, for the record: ChEMBL document CHEMBL3352799

Assay explanation: Selectivity index, ratio of CC50 for human MT4 cells to EC50 for HIV1 RES056 expressing reverse transcriptase K103N/Y181C double mutant infected in human MT4 cells
Assay type: toxicity, cell-based
Test context: read-out: Ratio CC50/EC50
Quantity measured: selectivity ratio

Asked: Please report the recorded selectivity ratio for CONC(=O)c1ccc(NC(=O)CSc2ncncc2-c2cccc3ccccc23)c(Cl)c1 .
Given back: < 1

Asked: Please report the recorded selectivity ratio for CCOC(=O)c1ccc(NC(=O)CSc2ncncc2-c2cccc3ccccc23)c(Cl)c1 .
Given back: < 1

Asked: Please report the recorded selectivity ratio for O=C(CSc1ncncc1-c1cccc2ccccc12)Nc1ccccc1[N+](=O)[O-] .
Given back: < 1

Asked: Please report the recorded selectivity ratio for Brc1ccccc1Cn1cc(CSc2ncncc2-c2cccc3ccccc23)nn1 .
Given back: < 1

Asked: Please report the recorded selectivity ratio for COc1ccc(Cn2cc(CSc3ncncc3-c3cccc4ccccc34)nn2)cc1 .
Given back: < 1

Asked: Please report the recorded selectivity ratio for CCOC(=O)c1ccc(NC(=O)CSc2ncncc2-c2cccc3ccccc23)c(Br)c1 .
Given back: < 1

Asked: Please report the recorded selectivity ratio for COC(=O)c1ccc(NC(=O)CSc2ncncc2-c2cccc3ccccc23)c(Cl)c1 .
Given back: < 1

Asked: Please report the recorded selectivity ratio for COC(=O)c1ccc(NC(=O)CSc2ncncc2-c2cccc3ccccc23)c(Br)c1 .
Given back: < 1

Asked: Please report the recorded selectivity ratio for COC(=O)c1ccc(NC(=O)CSc2ncncc2-c2cccc3ccccc23)c([N+](=O)[O-])c1 .
Given back: 1

Asked: Please report the recorded selectivity ratio for O=C1Nc2ccc(Cl)cc2[C@@](C#CC2CC2)(C(F)(F)F)O1 .
Given back: > 27

Asked: Please report the recorded selectivity ratio for O=C(CSc1ncncc1-c1cccc2ccccc12)Nc1ccc(C(=O)NO)cc1Cl .
Given back: < 1

Asked: Please report the recorded selectivity ratio for CCOC(=O)CNC(=O)c1ccc(NC(=O)CSc2ncncc2-c2cccc3ccccc23)c(Cl)c1 .
Given back: 3

Asked: Please report the recorded selectivity ratio for CC(C)Nc1cccnc1N1CCN(C(=O)c2cc3cc(NS(C)(=O)=O)ccc3[nH]2)CC1 .
Given back: 1

Asked: Please report the recorded selectivity ratio for O=C(CSc1ncncc1-c1cccc2ccccc12)Nc1ccc(C(=O)O)nc1Cl .
Given back: < 1

Asked: Please report the recorded selectivity ratio for CCOC(=O)C(C)NC(=O)c1ccc(NC(=O)CSc2ncncc2-c2cccc3ccccc23)c(Cl)c1 (stereo not drawn) .
Given back: < 1

Asked: Please report the recorded selectivity ratio for NS(=O)(=O)c1ccc(NC(=O)CSc2ncncc2-c2cccc3ccccc23)c(Br)c1 .
Given back: 6

Asked: Please report the recorded selectivity ratio for O=C(O)c1ccc(-n2cc(CSc3ncncc3-c3cccc4ccccc34)nn2)cc1 .
Given back: < 1

Asked: Please report the recorded selectivity ratio for O=C(CSc1ncncc1-c1cccc2ccccc12)Nc1ccc(C(=O)O)cc1Cl .
Given back: < 1

----------
Assay explanation: Cytotoxicity against human MT4 cells by MTT assay
Format: cell-based
What CC50 was measured for each of the following?
Field: numeric (µM). Do not append units.

Asked: Please report the recorded CC50 for Brc1ccccc1Cn1cc(CSc2ncncc2-c2cccc3ccccc23)nn1 .
Given back: 39.4

Asked: Please report the recorded CC50 for O=C(CSc1ncncc1-c1cccc2ccccc12)Nc1ccccc1[N+](=O)[O-] .
Given back: 22.5

Asked: Please report the recorded CC50 for CCOC(=O)c1ccc(NC(=O)CSc2ncncc2-c2cccc3ccccc23)c(Cl)c1 .
Given back: 195

Asked: Please report the recorded CC50 for CCOC(=O)C(C)NC(=O)c1ccc(NC(=O)CSc2ncncc2-c2cccc3ccccc23)c(Cl)c1 (centres undefined) .
Given back: 35.6

Asked: Please report the recorded CC50 for CONC(=O)c1ccc(NC(=O)CSc2ncncc2-c2cccc3ccccc23)c(Cl)c1 .
Given back: 131

Asked: Please report the recorded CC50 for COC(=O)c1ccc(NC(=O)CSc2ncncc2-c2cccc3ccccc23)c(Cl)c1 .
Given back: 154

Asked: Please report the recorded CC50 for O=C(O)c1ccc(-n2cc(CSc3ncncc3-c3cccc4ccccc34)nn2)cc1 .
Given back: 95.9

----------
Assay explanation: Selectivity index, ratio of CC50 for human MT4 cells to EC50 for HIV1 3B infected in human MT4 cells
Type: toxicity, cell-based
Test context: read-out: Ratio CC50/EC50
What selectivity ratio was measured for each of the following?

Asked: Please report the recorded selectivity ratio for COc1ccc(Cn2cc(CSc3ncncc3-c3cccc4ccccc34)nn2)cc1 .
Given back: < 1

Asked: Please report the recorded selectivity ratio for CC(C)Nc1cccnc1N1CCN(C(=O)c2cc3cc(NS(C)(=O)=O)ccc3[nH]2)CC1 .
Given back: > 89

Asked: Please report the recorded selectivity ratio for COC(=O)c1ccc(NC(=O)CSc2ncncc2-c2cccc3ccccc23)c([N+](=O)[O-])c1 .
Given back: ≥ 55

Asked: Please report the recorded selectivity ratio for O=C(O)c1ccc(-n2cc(CSc3ncncc3-c3cccc4ccccc34)nn2)cc1 .
Given back: < 1
